Documented IC50 across a set of compounds
# TESTED_ON: PDK1 (Homo sapiens (Human))
# Sequence (O15530 whole entry): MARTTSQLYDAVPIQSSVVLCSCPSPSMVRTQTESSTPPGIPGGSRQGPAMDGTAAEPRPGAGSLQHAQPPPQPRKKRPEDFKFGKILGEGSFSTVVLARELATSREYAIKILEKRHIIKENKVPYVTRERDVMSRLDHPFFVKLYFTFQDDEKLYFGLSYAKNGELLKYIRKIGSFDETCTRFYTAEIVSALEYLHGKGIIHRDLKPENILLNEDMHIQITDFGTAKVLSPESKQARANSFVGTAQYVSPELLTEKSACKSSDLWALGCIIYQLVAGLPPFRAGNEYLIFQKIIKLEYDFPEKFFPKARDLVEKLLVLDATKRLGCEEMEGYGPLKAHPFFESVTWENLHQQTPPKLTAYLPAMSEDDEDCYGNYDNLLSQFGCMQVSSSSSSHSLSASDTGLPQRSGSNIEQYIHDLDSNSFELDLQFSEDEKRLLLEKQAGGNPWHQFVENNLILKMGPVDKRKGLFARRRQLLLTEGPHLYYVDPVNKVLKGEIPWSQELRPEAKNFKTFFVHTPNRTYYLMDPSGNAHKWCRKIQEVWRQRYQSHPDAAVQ
# ASSAY_REMARKS: PDK1 ATP Depletion Kinase Assay (Kinase-Glo luminescence)
# Format: biochemical
# TEST_CONTEXT: PDKtide substrate, read-out: PDK1 Kinase assays (IC50, μM) Activity Assay
MEASURED_PARAMETER: IC50 (µM)

>>> df
                                   compound  unit_abbrev  limit_sign  observed_measurement
0  CC1CCN(c2ccc3[nH]c(-c4n[nH]c5ccc(NC(=O)C6CC6(F)F)cc45)nc3c2)CC1 (centres unmarked)           µM           =                  0.78
1  O=C(Nc1ccc2[nH]nc(-c3nc4ccccc4[nH]3)c2c1)C1CCC(F)(F)CC1           µM           =                   1.5
2     Brc1ccc2[nH]nc(-c3nc4ccccc4[nH]3)c2c1           µM           =                  10.9
3  O=C(Nc1ccc2[nH]nc(-c3nc4ccccc4[nH]3)c2c1)NC1CC1           µM           =                  11.6
4  O=C(Nc1ccc2[nH]nc(-c3nc4ccccc4[nH]3)c2c1)NC1CCCC1           µM           >                   100

* * *

# ASSAY_REMARKS: Pharmacokinetics in mice (iv and po)
# Type: in vivo
# TEST_CONTEXT: mouse, plasma, po, 30 mg/kg
MEASURED_PARAMETER: bioavailability (%)

>>> print(df.to_string())
                                   molecule  measured_parameter  observed_measurement
0  CC1CN(c2ccc3nc(-c4n[nH]c5ccc(NC(=O)C6CC6(F)F)cc45)[nH]c3c2)CCO1 (stereo not shown)     bioavailability                    19

* * *

# TESTED_ON: PDK1 (Homo sapiens (Human))
# ASSAY_REMARKS: PDK1 ATP Depletion Kinase Assay (Kinase-Glo luminescence)
# Format: biochemical
# TEST_CONTEXT: PDKtide substrate, read-out: PDK1 Kinase assays (IC50, μM) Activity Assay
Reported IC50 maps to class as: bin 0: < 0.3 µM; bin 1: ≥ 0.3 µM and < 20 µM; bin 2: ≥ 20 µM

                                    compound  group
 0  O=C(Nc1cccc2[nH]nc(-c3nc4ccc(N5CCOCC5)cc4[nH]3)c12)C1CC1(F)F (stereo not shown)  bin 1
 1  O=C(Nc1ccc2[nH]nc(-c3nc4ccccc4[nH]3)c2c1)c1cccc(F)c1  bin 2
 2  O=C(Nc1ccc2[nH]nc(-c3nc4ccccc4[nH]3)c2c1)C1CC1(F)F (stereo not shown)  bin 1
 3  O=C(Nc1ccc2[nH]nc(-c3nc4ccccc4[nH]3)c2c1)C1CC1  bin 1
 4  O=C(Nc1ccc2[nH]nc(-c3nc4cc(CN5CCOCC5)ccc4[nH]3)c2c1)C1CC1(F)F (stereo not shown)  bin 1
 5  CC1CN(c2ccc3nc(-c4n[nH]c5ccc(NC(=O)C6CC6(F)F)cc45)[nH]c3c2)CCO1 (stereo not shown)  bin 0
 6  O=C(Nc1ccc2[nH]nc(-c3nc4ccccc4[nH]3)c2c1)Nc1ccc(F)cc1F  bin 2
 7  O=C(Nc1ccc2[nH]nc(-c3nc4ccc(N5CCOCC5)cc4[nH]3)c2c1)C1CC1(F)F (stereo not shown)  bin 0
 8  O=C(Nc1ccc2c(-c3nc4ccc(N5CCOCC5)cc4[nH]3)n[nH]c2c1)C1CC1(F)F (stereo not shown)  bin 2
 9  CN1CCC(C)(C(=O)Nc2ccc3[nH]nc(-c4nc5ccccc5[nH]4)c3c2)CC1  bin 2
10  O=C(Nc1ccc2[nH]nc(-c3nc4cc(N5CCOCC5)ccc4[nH]3)c2c1)C1CC1  bin 0
11  FC(F)(F)c1cccc(-c2ccc3[nH]nc(-c4nc5ccccc5[nH]4)c3c2)c1  bin 2
12  CS(=O)(=O)c1cccc(-c2ccc3[nH]nc(-c4nc5ccccc5[nH]4)c3c2)c1  bin 2
13  O=C(Nc1ccc2[nH]nc(-c3nc4ccccc4[nH]3)c2c1)C1CCN(c2ccncc2)CC1  bin 2
14  CC(C)(C#N)c1ccc(-c2ccc3[nH]nc(-c4nc5ccccc5[nH]4)c3c2)cc1  bin 2

* * *

Documented Tmax across a set of compounds
# ASSAY_REMARKS: Pharmacokinetics in mice (iv and po)
# Format: in vivo
# TEST_CONTEXT: mouse, plasma, iv, 5.0 mg/kg
MEASURED_PARAMETER: Tmax

>>> df
                                   compound  observed_measurement
0  O=C(Nc1ccc2[nH]nc(-c3nc4ccc(N5CCOCC5)cc4[nH]3)c2c1)C1CC1(F)F (centres unmarked)               4.8 min
1  CC1CN(c2ccc3nc(-c4n[nH]c5ccc(NC(=O)C6CC6(F)F)cc45)[nH]c3c2)CCO1 (centres unmarked)               4.8 min

* * *

# Tested on: MCF-7
# ASSAY_REMARKS: Cell viability assay, cancer cell line panel
# Format: cell-based
# TEST_CONTEXT: Homo sapiens, MCF7; mutation PIK3CA
pIC50: −log10 of the molar value.
MEASURED_PARAMETER: pIC50

                                   molecule  tested_on  measured_parameter  observed_measurement
0  O=C(Nc1ccc2[nH]nc(-c3nc4ccc(N5CCOCC5)cc4[nH]3)c2c1)C1CC1(F)F (stereo not shown)      MCF-7               pIC50                  5.06

* * *

# Test system: LNCap
# ASSAY_REMARKS: Cell viability assay, cancer cell line panel
# Assay type: cell-based
# TEST_CONTEXT: Homo sapiens, mutation PTEN
MEASURED_PARAMETER: IC50 (µM)

>>> print(df.to_string())
                                   compound  unit_abbrev  observed_measurement
0  O=C(Nc1ccc2[nH]nc(-c3nc4ccc(N5CCOCC5)cc4[nH]3)c2c1)C1CC1(F)F (stereo not shown)           µM                  24.8

* * *

# ASSAY_REMARKS: Pharmacokinetics in mice (iv and po)
# Format: in vivo
# TEST_CONTEXT: mouse, plasma, po (Table VIII, dose not given)
MEASURED_PARAMETER: Cmax (ng/mL)

In [3]: df
Out[3]:
                                   compound  measured_parameter  observed_measurement
0  O=C(Nc1ccc2[nH]nc(-c3nc4ccc(N5CCOCC5)cc4[nH]3)c2c1)C1CC1(F)F (stereo not shown) [Compound 1]                Cmax                     9

* * *

Documented pIC50 across a set of compounds
# System: HS578T cell line
# ASSAY_REMARKS: Cell viability after PTEN shRNA knockdown
# Assay type: cell-based
# TEST_CONTEXT: Homo sapiens, Hs-578T, PTEN knockdown shRNA, read-out: IC50 for cell viability, PTEN knockdown shRNA cells
# Procedure: The lentiviral particles with PTEN shRNA or scrambled siRNA (ssi RNA) were purchased from Thermo Scientific. The cells were seeded in a 24-well plate and incubated overnight in RPMI full media. The media was removed and the cells were transfected with either siRNA or ssiRNA particles in serum/antibiotic free RPMI media. Six hours post-transduction, 1 ml of full media (serum plus penicillin/streptomycin) was added and the cells were incubated overnight. […]
pIC50: −log10 of the molar value.
MEASURED_PARAMETER: pIC50

>>> df
                                   compound  measured_parameter  observed_measurement
0  CC1CN(c2ccc3nc(-c4n[nH]c5ccc(NC(=O)C6CC6(F)F)cc45)[nH]c3c2)CCO1 (centres unmarked)               pIC50                  6.10
1  O=C(Nc1ccc2[nH]nc(-c3nc4ccc(N5CCOCC5)cc4[nH]3)c2c1)C1CC1(F)F (centres unmarked)               pIC50                  5.92

* * *

# Tested on: AN3-CA cells
# ASSAY_REMARKS: Cell viability assay (ATP-lite)
# Assay type: cell-based
# TEST_CONTEXT: Homo sapiens, AN3-CA; read-out: IC50 cell viability, AN3-CA cells
pIC50: −log10 of the molar value.
MEASURED_PARAMETER: pIC50

>>> df
                                   compound  observed_measurement
0  O=C(Nc1ccc2[nH]nc(-c3nc4ccc(N5CCOCC5)cc4[nH]3)c2c1)C1CC1(F)F (stereo not shown)                  7.57
